Just for reference, ChEMBL document CHEMBL2046395 is where these values come from.

Form field: pIC50 (one value per entry).
Test system: Trypanosoma brucei rhodesiense
Experiment: Antitrypanosomal activity against Trypanosoma brucei rhodesiense STIB900 by Alamar blue growth inhibition assay
Type: functional, organism-based
Just the number, please; pIC50 means minus log10 of the concentration in mol/L.

Challenge: Consider the compound O=c1c2cc([N+](=O)[O-])ccc2n2n1Cc1ccccc1CC2 and give its measured pIC50.
Response given: 4.06

* * *

Test system: Trypanosoma brucei rhodesiense
Test: Antitrypanosomal activity against Trypanosoma brucei rhodesiense STIB900 by Alamar blue growth inhibition assay
Format: functional, organism-based
Lab note - cut at 80 µM for IC50: Yes if strictly below, No if not.

molecule_smiles=O=C(NN1Cc2ccccc2C1)c1cccnc1Cl class_label=No
molecule_smiles=CN1C(=O)C2=Cc3ccccc3CCN2c2ccc([N+](=O)[O-])cc21 class_label=No
molecule_smiles=COc1nn(Cc2ccccc2Cn2nc(OC)c3cc([N+](=O)[O-])ccc32)c2ccc([N+](=O)[O-])cc12 class_label=No
molecule_smiles=O=C(NN1Cc2ccccc2C1)c1ccccc1 class_label=No
molecule_smiles=CN(C)NC(=O)c1cc([N+](=O)[O-])ccc1Cl class_label=No
molecule_smiles=CCCn1c2ccc([N+](=O)[O-])cc2c(=O)n1Cc1ccccc1 class_label=Yes

Challenge: Is the reported IC50 for CN(C)CCOc1nn(Cc2ccccc2)c2ccc([N+](=O)[O-])cc12 strictly below 80 µM?
Response given: Yes

Challenge: Is the reported IC50 for COc1nn(Cc2ccccc2Cn2nc(OC)c3ccccc32)c2ccccc12 strictly below 80 µM?
Response given: No

Challenge: Is the reported IC50 for O=[N+]([O-])c1ccc2c(c1)C([O-])=N[N+]21CCCCCC1 strictly below 80 µM?
Response given: No

Challenge: Is the reported IC50 for O=c1c2cc([N+](=O)[O-])ccc2[nH]n1Cc1ccccc1 strictly below 80 µM?
Response given: No

Challenge: Is the reported IC50 for O=C(NN(Cc1ccccc1)Cc1ccccc1)c1cc([N+](=O)[O-])ccc1F strictly below 80 µM?
Response given: Yes

Challenge: Is the reported IC50 for O=c1[nH]n(Cc2ccccc2F)c2ccc([N+](=O)[O-])cc12 strictly below 80 µM?
Response given: No

Challenge: Is the reported IC50 for O=C(NN1Cc2ccccc2C1)c1ccccc1F strictly below 80 µM?
Response given: No

Challenge: Is the reported IC50 for [O-]C1=N[N+]2(CCCCC2)c2ccccc21 strictly below 80 µM?
Response given: No

* * *

Form field: selectivity ratio (one value per entry).
Assay: Selectivity index, ratio of IC50 for rat L6 cells to IC50 for Trypanosoma brucei rhodesiense STIB900
Format: toxicity, cell-based
Details: read-out: Ratio IC50
Format: numeric value only, no unit, no commentary.

Example cases with answers are listed next.
molecule_smiles=COc1nn(Cc2ccccc2Cn2nc(OC)c3ccccc32)c2ccccc12 numeric_value=0.4
molecule_smiles=O=C(NN1Cc2ccccc2C1)c1ccccc1 numeric_value=0.2
molecule_smiles=O=C1CN(CCCCCN2CCCCC2)c2ccc([N+](=O)[O-])cc2N1 numeric_value=4.6

Challenge: Consider the compound O=c1c2cc([N+](=O)[O-])ccc2n(Cc2ccccc2)n1Cc1ccccc1 and give its measured selectivity ratio.
Response given: 0.8

Challenge: Consider the compound O=c1c2cc([N+](=O)[O-])ccc2n2n1Cc1ccccc1C2 and give its measured selectivity ratio.
Response given: 3.3

* * *

Experiment: Selectivity index, ratio of IC50 for rat L6 cells to IC50 for Trypanosoma brucei rhodesiense STIB900
Type: toxicity, cell-based
Conditions: read-out: Ratio IC50
Form field: selectivity ratio (one value per entry).

Example cases with answers are listed next.
molecule_smiles=COc1nn(Cc2ccccc2F)c2ccc([N+](=O)[O-])cc12 readout_name="selectivity ratio" result="> 1.7"
molecule_smiles=O=C(Cc1cc([N+](=O)[O-])ccc1F)NN1Cc2ccccc2C1 readout_name="selectivity ratio" result=0.9
molecule_smiles=Cn1[nH]c(=O)c2cc([N+](=O)[O-])ccc21 readout_name="selectivity ratio" result="> 1.7"

Turning now to a further record.
Challenge: Consider the molecule C[n+]1cccc2c(=O)n3n(c21)Cc1ccccc1C3 and give its measured selectivity ratio.
Response given: > 1.1

* * *

Test system: Trypanosoma brucei rhodesiense
Assay: Antitrypanosomal activity against Trypanosoma brucei rhodesiense STIB900 by Alamar blue growth inhibition assay
Type: functional, organism-based
Readout Name: IC50

Example cases with answers are listed next.
compound="CN1C(=O)C2CCCCN2c2ccc([N+](=O)[O-])cc21 (stereo not drawn)" result="154 µM"
compound=Cn1[nH]c(=O)c2cc([N+](=O)[O-])ccc21 result="313 µM"

Turning now to a further record.
Challenge: Consider the compound COc1nn(Cc2ccccc2F)c2ccc([N+](=O)[O-])cc12 and give its measured IC50.
Response given: 191 µM

* * *

Form field: selectivity ratio (one value per entry).
Assay: Selectivity index, ratio of IC50 for rat L6 cells to IC50 for Trypanosoma brucei rhodesiense STIB900
Assay type: toxicity, cell-based
Details: read-out: Ratio IC50

Example cases with answers are listed next.
molecule_smiles=CN1C(=O)C2=Cc3ccccc3CCN2c2ccc([N+](=O)[O-])cc21 result="> 1.6"
molecule_smiles=COc1nn(Cc2ccccc2Cn2nc(OC)c3cc([N+](=O)[O-])ccc32)c2ccc([N+](=O)[O-])cc12 result="> 1.7"

Challenge: Consider the molecule O=C(NN1CCCCC1)c1cc([N+](=O)[O-])ccc1Cl and give its measured selectivity ratio.
Response given: > 1.7
